# ASSAYED TARGET: Protein cereblon/Bromodomain-containing protein 3 (Homo sapiens) (UniProt Q15059+Q96SW2)
# Sequence (Q15059 2-726 limits assumed): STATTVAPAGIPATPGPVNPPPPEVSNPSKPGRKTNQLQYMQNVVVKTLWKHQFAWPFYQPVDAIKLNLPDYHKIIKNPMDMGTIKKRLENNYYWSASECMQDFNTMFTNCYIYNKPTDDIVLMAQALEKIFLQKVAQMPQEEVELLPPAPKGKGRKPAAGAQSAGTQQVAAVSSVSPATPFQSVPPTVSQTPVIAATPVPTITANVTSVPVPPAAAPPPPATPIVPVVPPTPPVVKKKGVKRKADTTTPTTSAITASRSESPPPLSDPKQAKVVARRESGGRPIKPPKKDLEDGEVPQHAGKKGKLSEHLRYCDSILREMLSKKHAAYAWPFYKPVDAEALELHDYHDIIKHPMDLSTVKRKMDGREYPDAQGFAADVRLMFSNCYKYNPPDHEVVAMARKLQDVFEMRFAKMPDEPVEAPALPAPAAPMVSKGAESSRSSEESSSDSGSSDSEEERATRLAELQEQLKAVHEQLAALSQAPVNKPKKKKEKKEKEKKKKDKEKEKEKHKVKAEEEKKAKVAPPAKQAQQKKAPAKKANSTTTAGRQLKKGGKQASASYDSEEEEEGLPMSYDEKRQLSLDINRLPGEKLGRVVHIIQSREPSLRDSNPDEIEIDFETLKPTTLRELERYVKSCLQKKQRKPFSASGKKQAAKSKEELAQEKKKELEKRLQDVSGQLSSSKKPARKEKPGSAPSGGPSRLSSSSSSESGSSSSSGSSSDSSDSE
# Sequence (Q96SW2 whole entry partner): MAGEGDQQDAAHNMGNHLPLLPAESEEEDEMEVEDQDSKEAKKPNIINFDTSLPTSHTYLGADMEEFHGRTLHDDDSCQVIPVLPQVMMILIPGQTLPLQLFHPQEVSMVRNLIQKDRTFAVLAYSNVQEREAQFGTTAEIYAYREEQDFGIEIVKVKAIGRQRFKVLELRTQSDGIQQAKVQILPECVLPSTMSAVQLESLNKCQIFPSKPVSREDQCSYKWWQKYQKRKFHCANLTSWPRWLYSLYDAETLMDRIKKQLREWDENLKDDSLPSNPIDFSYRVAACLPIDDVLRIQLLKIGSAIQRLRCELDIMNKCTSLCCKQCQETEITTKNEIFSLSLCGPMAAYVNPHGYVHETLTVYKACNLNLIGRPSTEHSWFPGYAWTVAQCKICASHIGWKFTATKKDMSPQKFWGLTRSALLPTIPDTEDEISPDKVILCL
# PROTOCOL DESCRIPTION: PROTAC activity at CRBN/Hibit-tagged CRISPR BRD3 (unknown origin) expressed in HEK293 cells co-expressing LgBiT assessed as degradation of BRD3 by […] glo-max assay
# Assay type: cell-based
Calls of active or inactive are those of the source. The rule behind the calls is not given here.
READOUT KIND: Activity

Cc1sc2c(c1C)C(c1ccc(Cl)cc1)=N[C@@H](CC(=O)N1CCC(CN3CCN(c4ccc5c(c4)CN(C4CCC(=O)NC4=O)C5=O)CC3)CC1)c1nnc(C)n1-2 (stereo partly specified) :: Active
Cc1sc2c(c1C)C(c1ccc(Cl)cc1)=N[C@@H](CC(=O)N1CCC(CN3CCN(c4ccc5c(c4)oc(=O)n5C4CCC(=O)NC4=O)CC3)CC1)c1nnc(C)n1-2 (stereo partly specified) :: Active
Cc1sc2c(c1C)C(c1ccc(Cl)cc1)=N[C@@H](CC(=O)N1CCC(CN3CCN(c4ccc5c(c4)C(=O)N(C4CCC(=O)NC4=O)C5=O)CC3)CC1)c1nnc(C)n1-2 (stereo partly specified) :: Active
Cc1sc2c(c1C)C(c1ccc(Cl)cc1)=N[C@@H](CC(=O)N1CCC(CN3CCN(c4ccc5c(c4)n(C)c(=O)n5C4CCC(=O)NC4=O)CC3)CC1)c1nnc(C)n1-2 (stereo partly specified) :: Active
